Listing of entries alongside the reported GI50.
# System: SR
# assayInfo: NCI tumour cell line growth inhibition, 48 h
Calls of active or inactive are those of the source. No stated cut-off is given here; in the data, active = GI50 up to about 1.1 µM and inactive = higher.

A selection of reference data follows.
O=[N+]([O-])/C(C(Cl)=C(Cl)Cl)=C(/Nc1ccccc1)SCc1ccccc1 | 22.3 µM (inactive)
CC(=O)/N=C1/N(/C=C2\C(=O)Oc3ccccc3C2=O)C(=O)/C(=C/c2cccc(Cl)c2Cl)N1C | 10.8 µM (inactive)
COC(=O)c1c2c(cc3c1CC1(C3)Cc3cc4c(c(C(C)=O)c3C1)CCC4)C=CC2 (stereo unspecified) | 20.8 µM (inactive)
Cc1ccc(N/N=C/C2=CC(C)(C)C(C#N)(C#N)C(O)=C2C#N)cc1 | 14.3 µM (inactive)
COc1ccc(N2C(=O)c3c(c4[nH]c5ccccc5c4c4ccc(C(C)(C)C)cc34)C2=O)cc1 | 21.2 µM (inactive)

Would you kindly look at the next entry?
Requested read-out GI50, target or system SR, entry CCCCCCCCCCCCCCCCOP(=O)(O)OCC(N)C(=O)O (stereo unspecified)
33 µM (inactive)

====

Listing of entries alongside the reported GI50.
# System: UO-31
# assayInfo: NCI tumour cell line growth inhibition, 48 h
Active and inactive are the calls of the source. No stated cut-off is given here; in the data, active = GI50 up to about 1.1 µM and inactive = higher.

COC(=O)c1c2c(cc3c1CC1(C3)Cc3cc4c(c(C(C)=O)c3C1)CCC4)C=CC2 (stereo not given) | 24.3 µM (inactive)
CC(=O)OCc1cc(=O)n2c([nH]c3ccccc32)c1C#N | 78.3 µM (inactive)
CCc1nc(N)nc(N)c1-c1ccc(N2CCNCC2)cc1 | > 100 µM (inactive)
O=C1O[C@]2(c3ccccc3)C(c3ccccc3)=C[C@]2(C(=O)c2ccccc2)C1=O | 27.9 µM (inactive)
COC(=O)C1=C(C)NC2=C(C(=O)c3ccccc32)C1c1cn(-c2ccccc2)nc1-c1ccccc1 (stereo not given) | 3.91 µM (inactive)
[N-]=[N+]=NC1C2CC3CC(C2)CC1C3 (stereo not given) | > 100 µM (inactive)
O=C(O)C[n+]1cn(NC(=O)Cc2ccccc2)cn1 | > 10 µM (inactive)
COC(=O)CC(C(C(C)=O)C(=O)OCc1ccccc1)N1C(=O)OCC1c1ccccc1 (stereo not given) | 44.4 µM (inactive)
COC(=O)C(=O)C(C(=O)Nc1cccc(C)c1C)C1Sc2ccccc2NC1=O (stereo not given) | > 25 µM (inactive)
Cc1[nH]c2ncn3ncnc3c2c1Cc1ccccc1 | > 100 µM (inactive)

Would you kindly look at the next entry?
Form field: reported GI50 of `Cc1nc(-n2nc(-c3ccccc3)cc2-c2ccccc2)sc1C(=O)/C=C/c1ccc(Cl)cc1`
9.06 µM (inactive)

====

# Tested on: Malme-3M
# assayInfo: NCI tumour cell line growth inhibition, 48 h
Calls of active or inactive are those of the source. Cut-off read from the data, not from the text of the source: active = GI50 up to about 1.1 µM and inactive = higher.
# valid calls are 1 (active), 0 (inactive); nothing else

Here's what some known entries look like.
CC(C)C(C/C=C1/CC(CO)(COC(=O)CC(C(C)C)C(C)C)OC1=O)C(C)C (configuration not stated) | 0
CN(C)CCNc1ccc2ncnc3c2c1C(=O)c1ccccc1-3 | 1
CC(=O)NNc1nc(C)c(C(/C=C/c2ccc(Cl)cc2)=N\N=C(N)N)s1 | 0
CCN(CC)CCOC(=O)Cc1cccc2c(=O)cc(-c3ccccc3)oc12 | 0
CC(=O)Oc1ccc2c(c1OC(C)=O)CCC1C2=CC[C@]2(C)C(=O)CCC12 (some centres not stated) | 0
O=C(O)c1cc(CC2Cc3cc4c(cc3C2=O)CCC4)cc2c1CCC2 (configuration not stated) | 0

// param item: COc1cc(C2C3=C(COC3=O)Oc3cc4c(cc32)OCO4)cc(OC)c1O (configuration not stated) ; yields the recorded call
1

// param item: `CCN(CC)c1ccc(/C=C/C(=O)c2cc(C(C)(C)C)c(O)c(C(C)(C)C)c2)cc1` ; yields the recorded call
0

// param item: COc1ccccc1C1CC(=O)CC(c2ccccc2OC)C12C(=O)NC(=S)NC2=O (configuration not stated) ; yields the recorded call
0

// param item: `Cc1n[nH]c(=O)n1/N=C/c1cccs1` ; yields the recorded call
0

// param item: O=S1(=O)c2ccccc2N=C(c2ccccc2Cl)CC1c1ccc(F)cc1 (configuration not stated) ; yields the recorded call
0

// param item: COc1ccc(C(OCC2OC(n3cc(C)c(=O)[nH]c3=O)CC2n2cc(Cn3cc(Br)c(=O)[nH]c3=O)nn2)(c2ccccc2)c2ccccc2)cc1 (configuration not stated) ; yields the recorded call
0

Values from ChEMBL document CHEMBL1201862
